Kindly state IC50 for each of the entries shown.
# assay_target: Human MGAT-2 (Homo sapiens (Human), UniProt Q3SYC2)
# Sequence (Q3SYC2 whole entry): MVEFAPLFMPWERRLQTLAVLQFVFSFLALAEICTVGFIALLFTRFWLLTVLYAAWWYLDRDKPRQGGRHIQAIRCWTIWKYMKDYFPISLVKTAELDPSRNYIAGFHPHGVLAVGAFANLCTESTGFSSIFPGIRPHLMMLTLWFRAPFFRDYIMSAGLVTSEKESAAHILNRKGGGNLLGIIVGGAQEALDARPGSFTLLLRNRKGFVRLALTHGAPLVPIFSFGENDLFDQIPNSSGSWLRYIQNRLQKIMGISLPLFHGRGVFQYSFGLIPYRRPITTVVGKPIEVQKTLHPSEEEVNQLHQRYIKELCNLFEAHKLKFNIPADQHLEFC
# assay_overview: MGAT LCMS Assay (human MGAT-2)
# Format: biochemical
# measurement_context: human MGAT-2 membranes expressed in Sf9 cells; 2-oleoylglycerol and oleoyl-Coenzyme A; read-out: h-MGAT2 IC50 (nM) LCMS Assay
Respond numerically; units are nM and should not be typed.

Value lookup for IC50; key = Cc1ccc(C2=C(n3ccnc3)C(=O)NC(c3ccc(OCCCC(F)(F)F)cc3)(C(F)(F)F)C2)cc1 (stereo not drawn) [Example 114] 704

Value lookup for IC50; key = Cc1ccc(C2=C(C(=O)Nc3nn[nH]n3)C(=O)NC(c3cccc(C4=CCCCC4)c3)(C(F)(F)F)C2)cc1 (stereo not drawn) [Example 127] 10

Value lookup for IC50; key = Cc1ccc(C2=C(C#N)C(=O)NC(c3cnn(CCCCC(F)(F)F)c3)(C(F)(F)F)C2)cc1 (stereo not drawn) [Example 227] 63

Value lookup for IC50; key = COc1ccc(Cn2cc(C3(C(F)(F)F)CC(c4ccc(C)cc4)=C(c4nn[nH]n4)C(=O)N3)cn2)cc1 (stereo not drawn) [Example 182] 2050

Value lookup for IC50; key = Cc1ccc(C2=C(c3cn[nH]n3)C(=O)NC(C#CCCc3ccccc3)(C(F)(F)F)C2)cc1 (stereo not drawn) [Example 198] 16

Value lookup for IC50; key = Cc1ccc(C2=C(C(=O)Nc3cc(C)no3)C(=O)NC(c3ccc(OCCCC(F)(F)F)cc3)(C(F)(F)F)C2)cc1 (stereo not drawn) [Example 281] 3

Value lookup for IC50; key = COOSNc1ccc(C2=C(C#N)C(=O)NC(c3ccc(OCCCC(F)(F)F)cc3)(C(F)(F)F)C2)cc1 (stereo not drawn) [Example 225] 889

Value lookup for IC50; key = Cc1ccc(C2=C(C(=O)Nc3ccc(C#N)cc3)C(=O)NC(c3ccc(OCCCC(F)(F)F)cc3)(C(F)(F)F)C2(F)F)cc1 (stereo not drawn) [Example 103] 645

Value lookup for IC50; key = Cc1ccc(C2=C(C(=O)Nc3ccc(O)cc3)C(=O)NC(c3ccc(OCCCC(F)(F)F)cc3)(C(F)(F)F)C2)cc1 (stereo not drawn) [Example 122] 1

Value lookup for IC50; key = Cc1ccc(C2=C(C(=O)Nc3ccc(-c4nnn[nH]4)nc3)C(=O)NC(c3ccc(OCCCC(F)(F)F)cc3)(C(F)(F)F)C2)cc1 (stereo not drawn) [Example 111] 7

Value lookup for IC50; key = Cc1ccc(C2=C(NC(=O)c3ccccc3C)C(=O)N[C@@](c3ccc(OCCCC(F)(F)F)cc3)(C(F)(F)F)C2)cc1 [Example 105] 24

Value lookup for IC50; key = CCCCCCC(=O)CNC(=O)C1(C)CC(c2ccc(C)cc2)=C(NC(=O)c2ccc(OC)cc2)C(=O)N1 (stereo not drawn) [Example 191] 797

---

# assay_target: Human MGAT-2 (Homo sapiens (Human), UniProt Q3SYC2)
# assay_overview: MGAT LCMS Assay (human MGAT-2)
# Assay type: biochemical
# measurement_context: human MGAT-2 membranes expressed in Sf9 cells; 2-oleoylglycerol and oleoyl-Coenzyme A; read-out: h-MGAT2 IC50 (nM) LCMS Assay
observation_type: log10(IC50) (log10 of the value in nM)
Lab note - IC50 converted to log10 from values in nM.

Value lookup for log10(IC50); key = CN(C)c1ccc(C2=C(c3nn[nH]n3)C(=O)NC(c3ccc(OCCCC(F)(F)F)cc3)(C(F)(F)F)C2)cc1 (stereo not shown) 0.85

Value lookup for log10(IC50); key = Cc1ccc(C2=C(C(=O)Nc3ccc(F)cc3)C(=O)NC(c3ccc(Oc4ccccc4)cc3)(C(F)(F)F)C2)cc1 (stereo not shown) [Example 48] 0.85

Value lookup for log10(IC50); key = CCCCCNC(=O)C1=C(c2ccc(C)cc2)CC(c2ccc(OCCCC(F)(F)F)cc2)(C(F)(F)F)NC1=O (stereo not shown) 1.30

Value lookup for log10(IC50); key = Cc1ccc(C2=C(c3nnn[nH]3)C(=O)NC(c3ccc(OCCCC(F)(F)F)cc3)(C(F)(F)F)C2)c(C)c1 (stereo not shown) 2.40

Value lookup for log10(IC50); key = Cc1ccc(C2=C(NC(=O)c3cccnc3)C(=O)NC(c3ccc(OCCCC(F)(F)F)cc3)(C(F)(F)F)C2)cc1 (stereo not shown) 1.04

Value lookup for log10(IC50); key = Cc1ccc(C2=C(c3nn[nH]n3)C(=O)NC(c3ccc(Br)cc3)(C(F)(F)F)C2)cc1 (stereo not shown) [Example 112] 2.31

Value lookup for log10(IC50); key = Cc1ccc(C2=C(C(=O)Nc3ccccc3OC(F)(F)F)C(=O)NC(c3ccc(OCCC(F)(F)F)cc3)(C(F)(F)F)C2)cc1 (stereo not shown) 2.40

Value lookup for log10(IC50); key = Cc1ccc(C2=C(NC(=O)c3ccn(C)n3)C(=O)NC(c3ccc(OCCCC(F)(F)F)cc3)(C(F)(F)F)C2)cc1 (stereo not shown) 1.53

Value lookup for log10(IC50); key = COc1ccc(C2=C(n3cnnn3)C(=O)NC(c3ccc(OCCCC(F)(F)F)cc3)(C(F)(F)F)C2)c(F)c1 (stereo not shown) 1.00

Value lookup for log10(IC50); key = Cc1ccc(C2=C(NC(=O)c3cc(F)ccc3Cl)C(=O)NC(c3ccc(OCCCC(F)(F)F)cc3)(C(F)(F)F)C2)cc1 (stereo not shown) 1.76

Value lookup for log10(IC50); key = O=C1NC(c2ccc(OCCC(F)(F)F)cc2)(C(F)(F)F)CC(c2ccc(OC(F)(F)F)cc2)=C1c1nn[nH]n1 (stereo not shown) 1.64

Value lookup for log10(IC50); key = O=C1NC(c2ccc(OCCCC(F)(F)F)cc2)(C(F)(F)F)CC(c2ccc3c(c2)OCO3)=C1c1nn[nH]n1 (stereo not shown) 1.99

Value lookup for log10(IC50); key = Cc1ccc(C2=C(C(=O)Nc3nnc(C(F)(F)F)o3)C(=O)NC(c3ccc(OCCC(F)(F)F)cc3)(C(F)(F)F)C2)cc1 (stereo not shown) 2.52

Value lookup for log10(IC50); key = COc1ccc(C2=C(C#N)C(=O)NC(c3ccc(OCCCC(F)(F)F)cc3)(C(F)(F)F)C2)cc1Cl (stereo not shown) [Example 258] 3.06

Value lookup for log10(IC50); key = Cc1ccc(C2=C(C(=O)NC3CCCC3)C(=O)NC(c3ccc(OCCCC(F)(F)F)cc3)(C(F)(F)F)C2(F)F)cc1 (stereo not shown) 2.66

Value lookup for log10(IC50); key = O=C1NC(c2ccc(OCCCCCC(F)(F)F)c(F)c2)(C(F)(F)F)CC(c2ccc(OC(F)F)cc2)=C1c1nn[nH]n1 (stereo not shown) 1.28

---

Kindly state IC50 for each of the entries shown.
# assay_target: Human MGAT-2 (Homo sapiens (Human), UniProt Q3SYC2)
# assay_overview: MGAT LCMS Assay (human MGAT-2);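 further: diolein product quantified by LC/MS with positive APCI, expressed as peak area ratio versus an internal standard, and this ratio used to derive IC50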
# Type: biochemical
# measurement_context: human MGAT-2 membranes expressed in Sf9 cells; 2-oleoylglycerol and oleoyl-Coenzyme A; read-out: h-MGAT2 IC50 (nM) LCMS Assay
Respond numerically; units are nM and should not be typed.

Value lookup for IC50; key = Cc1ccc(C2=C(C(=O)Nc3ccccc3Cl)C(=O)NC(c3ccc(OCCCC(F)(F)F)cc3)(C(F)(F)F)C2)cc1 (stereo not drawn) [Example 60] 12

Value lookup for IC50; key = CCOc1ccc(C2=C(c3nn[nH]n3)C(=O)NC(c3ccc(OCCCC(F)(F)F)cc3)(C(F)(F)F)C2)cc1 (stereo not drawn) [Example 208] 30

Value lookup for IC50; key = Cc1ccc(C2=C(NC(=O)c3ccc(OC(F)(F)F)cc3)C(=O)NC(c3cnn(CCCCCC(F)(F)F)c3)(C(F)(F)F)C2)cc1 (stereo not drawn) [Example 200] 37

Value lookup for IC50; key = Cc1ccc(C2=C(C(=O)Nc3ccc(F)cc3)C(=O)NC(c3ccc(-c4cnccn4)cc3)(C(F)(F)F)C2)cc1 (stereo not drawn) [Example 50] 95

Value lookup for IC50; key = COc1ccc(C(=O)NC2=C(c3ccc(C)cc3)C(F)(F)C(c3ccc(OCCC(F)(F)F)cc3)(C(F)(F)F)NC2=O)cc1 (stereo not drawn) [Example 162] 214

Value lookup for IC50; key = Cc1ccc(C2=C(C(=O)Nc3ccc(F)cc3)C(=O)NC(c3ccc(Oc4ccccc4)cc3)(C(F)(F)F)C2)cc1 (stereo not drawn) [Example 165] 8

---

# assay_target: Human MGAT-2 (Homo sapiens (Human))
# assay_overview: MGAT LCMS Assay (human MGAT-2)
# Assay type: biochemical
# measurement_context: human MGAT-2 membranes expressed in Sf9 cells; 2-oleoylglycerol and oleoyl-Coenzyme A; read-out: h-MGAT2 IC50 (nM) LCMS Assay
Kindly state IC50 for each of the entries shown.
Respond numerically; units are nM and should not be typed.

Form field - read-out: IC50; system: Human MGAT-2 (Homo sapiens (Human)); submitted item: Cc1ccc(C2=C(c3nn[nH]n3)C(=O)NC(c3ccc(OCCCC(F)(F)F)cc3)(C(F)F)C2)cc1 (centres unmarked) [Example 213] 1100

Form field - read-out: IC50; system: Human MGAT-2 (Homo sapiens (Human)); submitted item: COc1ccc(NC(=O)C2=C(c3ccc(C)cc3)CC(C)(C(=O)NCCCc3ccccc3)NC2=O)cc1 (centres unmarked) [Example 175] 264

Form field - read-out: IC50; system: Human MGAT-2 (Homo sapiens (Human)); submitted item: COc1ccc(C(=O)NC2=C(c3ccc(C)cc3)CC(c3ccc(OCCCC(F)(F)F)cc3)NC2=O)cc1 (centres unmarked) [Example 214] 12

Form field - read-out: IC50; system: Human MGAT-2 (Homo sapiens (Human)); submitted item: Cc1ccc(C2=C(C#N)C(=O)NC(c3ccc(OCCC4CCCC4)cc3)(C(F)(F)F)C2)cc1 (centres unmarked) [Example 36] 57

Form field - read-out: IC50; system: Human MGAT-2 (Homo sapiens (Human)); submitted item: Cc1ccc(C2=C(NC(=O)c3cnco3)C(=O)NC(c3ccc(OCCCC(F)(F)F)cc3)(C(F)(F)F)C2)cc1 (centres unmarked) [Example 152] 252

Form field - read-out: IC50; system: Human MGAT-2 (Homo sapiens (Human)); submitted item: Cc1ccc(C2=C(NC(=O)c3cc(C)no3)C(=O)NC(c3ccc(OCCCC(F)(F)F)cc3)(C(F)(F)F)C2(F)F)cc1 (centres unmarked) [Example 150] 3

Form field - read-out: IC50; system: Human MGAT-2 (Homo sapiens (Human)); submitted item: COc1ccc(C2(C(F)(F)F)NC(=O)C(C#N)=C(c3ccc(C)cc3)C2(F)F)cc1 (centres unmarked) [Example 138] 5800

Form field - read-out: IC50; system: Human MGAT-2 (Homo sapiens (Human)); submitted item: O=C1NC(c2ccc(OCCCC(F)(F)F)cc2)(C(F)(F)F)CC(c2ccc(OC(F)F)cc2)=C1c1nn[nH]n1 (centres unmarked) [Example 205] 13

Form field - read-out: IC50; system: Human MGAT-2 (Homo sapiens (Human)); submitted item: Cc1ccc(C2=C(c3nn[nH]n3)C(=O)NC(c3cccc(OCCCC(F)(F)F)c3)(C(F)(F)F)C2)cc1 (centres unmarked) [Example 267] 796

Form field - read-out: IC50; system: Human MGAT-2 (Homo sapiens (Human)); submitted item: COc1ccc(C2=C(c3nn[nH]n3)C(=O)NC(c3ccc(OCC(F)(F)F)cc3)(C(F)(F)F)C2)cc1 (centres unmarked) [Example 240] 7

Form field - read-out: IC50; system: Human MGAT-2 (Homo sapiens (Human)); submitted item: Cc1ccc(NC(=O)C2=C(c3ccc(C)cc3)C(F)(F)C(c3ccc(OCCC(F)(F)F)cc3)(C(F)(F)F)NC2=O)cc1 (centres unmarked) [Example 135] 778

These measurements were taken from patent US9187424B1.
